Molecular target: electric eel AChE (Electrophorus electricus)
observed property: IC50 (µM)
# unit: µM | format: bare number

Q: # IC50 lookup, item COc1cc2c(cc1OC)C(=O)C(CC1CCN(Cc3ccncc3Cl)CC1)C2 (stereo not drawn)
A: 0.364

Q: How about this compound: COc1cc2c(cc1OC)C(=O)C(CC1CCN(Cc3cccnc3Cl)CC1)C2 (stereo not drawn)
A: 0.414

Q: How about this compound: COc1cc2c(cc1OC)C(=O)C(CC1CCN(Cc3ccc(C)nc3)CC1)C2 (stereo not drawn)
A: 0.928

Q: How about this compound: COc1cc2c(cc1OC)C(=O)C(CC1CCN(Cc3ccncc3)CC1)C2 (stereo not drawn)
A: 0.334

Q: How about this compound: COc1cc2c(cc1OC)C(=O)C(CC1CCN(Cc3cccnc3Br)CC1)C2 (stereo not drawn)
A: 1.12

Q: How about this compound: COc1cc2c(cc1OC)C(=O)C(CC1CCN(Cc3ccnc(Br)c3)CC1)C2 (stereo not drawn)
A: 1.8

Q: How about this compound: COc1cc2c(cc1OC)C(=O)C(CC1CCN(Cc3ccnc(Cl)c3)CC1)C2 (stereo not drawn)
A: 2.06

Q: How about this compound: COc1cc2c(cc1OC)C(=O)C(CC1CCN(Cc3ccnc4ccccc34)CC1)C2 (stereo not drawn)
A: 0.356

Q: How about this compound: COc1cc2c(cc1OC)C(=O)C(CC1CCN(Cc3c(Cl)cncc3Cl)CC1)C2 (stereo not drawn)
A: 4.32

Q: How about this compound: COc1cc2c(cc1OC)C(=O)C(CC1CCN(Cc3cccnc3)CC1)C2 (stereo not drawn)
A: 0.051

Q: How about this compound: COc1cc2c(cc1OC)C(=O)C(CC1CCN(Cc3ccccn3)CC1)C2 (stereo not drawn)
A: 0.793

Q: How about this compound: COc1cc2c(cc1OC)C(=O)C(CC1CCN(Cc3cccnc3F)CC1)C2 (stereo not drawn)
A: 0.718

---

Target: electric eel AChE (Electrophorus electricus, UniProt O42275)
Sequence (O42275 24-633): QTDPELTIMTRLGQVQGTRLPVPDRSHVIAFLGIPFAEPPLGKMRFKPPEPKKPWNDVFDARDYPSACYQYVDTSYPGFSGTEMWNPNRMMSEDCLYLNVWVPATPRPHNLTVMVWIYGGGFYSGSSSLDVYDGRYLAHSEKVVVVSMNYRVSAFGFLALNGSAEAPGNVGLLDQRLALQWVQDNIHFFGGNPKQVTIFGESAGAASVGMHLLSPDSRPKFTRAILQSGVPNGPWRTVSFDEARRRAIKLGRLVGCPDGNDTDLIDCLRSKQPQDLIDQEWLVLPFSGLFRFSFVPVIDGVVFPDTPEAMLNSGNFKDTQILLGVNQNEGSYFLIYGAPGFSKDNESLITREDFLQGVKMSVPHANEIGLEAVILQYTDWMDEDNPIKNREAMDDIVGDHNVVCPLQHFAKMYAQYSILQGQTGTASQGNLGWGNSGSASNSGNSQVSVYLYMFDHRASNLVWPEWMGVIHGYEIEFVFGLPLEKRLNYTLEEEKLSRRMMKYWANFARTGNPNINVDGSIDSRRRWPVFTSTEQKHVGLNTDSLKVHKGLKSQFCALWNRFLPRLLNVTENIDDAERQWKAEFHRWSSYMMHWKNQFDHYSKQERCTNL
observed property: Ki
Quick note: unit goes after the number.

Q: # Ki lookup, item COc1cc2c(cc1OC)C(=O)C(CC1CCN(Cc3cccnc3)CC1)C2 (stereo not shown)
A: 62 nM

These entries and their values trace back to paper PMC8881002.
